Tested on: Escherichia coli TOP10;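 note: peptides expressed intracellularly from a pBAD plasmid library in pooled LB shake-flask culture, induced with 0.3% L-arabinose, DNA abundance read by NGS, three biological replicates, DESeq2 with apeglm shrinkage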
Assay: shrunken log2 fold change of peptide-encoding DNA abundance (4.5 h post-induction vs induction); higher = less antimicrobial activity (less host growth inhibition)
Details: time post-induction: 4.5 h; library: site-saturation at positions 5, 18, 19, 20
Label 1 for high-side shrunken log2 fold change (at or above -0.04) and 0 for low-side shrunken log2 fold change (below it).

RRIRSRPPRLPRPRPRPHNSPRP ... 0

input: Determine whether this sequence has shrunken log2 fold change no lower than -0.04: `RRIRPRPPRLPRPRPRPCEEPRP`
output: 1

input: Determine whether this sequence has shrunken log2 fold change no lower than -0.04: `RRIRPRPPRLPRPRPRPIEEPRP`
output: 1

input: Determine whether this sequence has shrunken log2 fold change no lower than -0.04: `RRIRLRPPRLPRPRPRPMPWPRP`
output: 1

input: Determine whether this sequence has shrunken log2 fold change no lower than -0.04: `RRIRPRPPRLPRPRPRPPLLPRP`
output: 1

input: Determine whether this sequence has shrunken log2 fold change no lower than -0.04: `RRIRSRPPRLPRPRPRPTDCPRP`
output: 0

input: Determine whether this sequence has shrunken log2 fold change no lower than -0.04: `RRIRMRPPRLPRPRPRPVYDPRP`
output: 0

input: Determine whether this sequence has shrunken log2 fold change no lower than -0.04: `RRIRHRPPRLPRPRPRPHYAPRP`
output: 0
